# Tested Target: TLR7 (Homo sapiens)
# Construct: Human peripheral blood mononuclear cells (PBMCs) consist of lymphocytes, monocytes and dendritic cells that express TLR7, TLR8 and TLR9; endogenous in cells
# Assay Overview: TLR7 human PBMC cell-based assay (antagonist, GS-986 stimulated cytokine release)
# Condition Context: human PBMCs; TLR7 agonist GS-986 400 nM, 6 hours; cytokines (IL-6 and IFNα) in supernatant; read-out: TLR-7 EC50
Readout Label: EC50 (nM)

Worked cases, answers included:
Cc1cc(-c2[nH]c3cc(C4CCN(C(=O)[C@@H]5CCCN5C)CC4)sc3c2C(C)C)cn2ncnc12 :: 3.8
COc1cc(-c2[nH]c3cc(-c4cnn(C5CCNCC5)c4)sc3c2C(C)C)cn2ncnc12 :: 0.4
Cc1cc(-c2[nH]c3cc(C(=O)N4CCCC5CNCC54)sc3c2C(C)C)cn2ncnc12 (stereo not drawn) :: 1.4
Cc1cc(-c2[nH]c3cc(C(=O)N(C)[C@H]4[C@@H]5CNC[C@@H]54)sc3c2C(C)C)cn2ncnc12 :: 1.6
Cc1cc(-c2[nH]c3cc(C(=O)N(C4CCNCC4)C4CC4)sc3c2C(C)C)cn2ncnc12 :: 0.7
Cc1cc(-c2[nH]c3cc(C(=O)N(C)[C@H]4CCNC[C@H]4F)sc3c2C(C)C)cn2ncnc12 :: 0.5
Cc1cc(-c2[nH]c3cc([C@@H]4C[C@H]5CC[C@@H](C4)N5)sc3c2C(C)C)cn2ncnc12 :: 0.09
Cc1cc(-c2[nH]c3cc(C(=O)N4CCNCC4)sc3c2C(C)C)cc(C)n1 :: 24.8
Cc1cc(-c2[nH]c3cc(C(=O)N(C)CCN(C)C4CC4)sc3c2C(C)C)cn2ncnc12 :: 9.6
Cc1cc(-c2[nH]c3cc(C4CC(C)(C)NC(C)(C)C4)sc3c2C(C)C)cn2ncnc12 :: 49.5

[a] Cc1cc(-c2[nH]c3cc(-c4cnc5c(c4)CN(CC(N)=O)CC5)sc3c2C(C)C)cn2ncnc12
[b] Cc1cc(-c2[nH]c3cc(C4CCC5(CC4)CN(C(=O)[C@@H]4COCCN4)C5)sc3c2C(C)C)cn2ncnc12
Task item: Would you kindly point out which of a and b has the smaller EC50 figure? Selection: enter the item's label.
Reply: b

====

# Tested Target: TLR8 (Homo sapiens)
# Construct: Human peripheral blood mononuclear cells (PBMCs) consist of lymphocytes, monocytes and dendritic cells that express TLR7, TLR8 and TLR9; endogenous in cells
# Sequence (Q9NR97 27-1041): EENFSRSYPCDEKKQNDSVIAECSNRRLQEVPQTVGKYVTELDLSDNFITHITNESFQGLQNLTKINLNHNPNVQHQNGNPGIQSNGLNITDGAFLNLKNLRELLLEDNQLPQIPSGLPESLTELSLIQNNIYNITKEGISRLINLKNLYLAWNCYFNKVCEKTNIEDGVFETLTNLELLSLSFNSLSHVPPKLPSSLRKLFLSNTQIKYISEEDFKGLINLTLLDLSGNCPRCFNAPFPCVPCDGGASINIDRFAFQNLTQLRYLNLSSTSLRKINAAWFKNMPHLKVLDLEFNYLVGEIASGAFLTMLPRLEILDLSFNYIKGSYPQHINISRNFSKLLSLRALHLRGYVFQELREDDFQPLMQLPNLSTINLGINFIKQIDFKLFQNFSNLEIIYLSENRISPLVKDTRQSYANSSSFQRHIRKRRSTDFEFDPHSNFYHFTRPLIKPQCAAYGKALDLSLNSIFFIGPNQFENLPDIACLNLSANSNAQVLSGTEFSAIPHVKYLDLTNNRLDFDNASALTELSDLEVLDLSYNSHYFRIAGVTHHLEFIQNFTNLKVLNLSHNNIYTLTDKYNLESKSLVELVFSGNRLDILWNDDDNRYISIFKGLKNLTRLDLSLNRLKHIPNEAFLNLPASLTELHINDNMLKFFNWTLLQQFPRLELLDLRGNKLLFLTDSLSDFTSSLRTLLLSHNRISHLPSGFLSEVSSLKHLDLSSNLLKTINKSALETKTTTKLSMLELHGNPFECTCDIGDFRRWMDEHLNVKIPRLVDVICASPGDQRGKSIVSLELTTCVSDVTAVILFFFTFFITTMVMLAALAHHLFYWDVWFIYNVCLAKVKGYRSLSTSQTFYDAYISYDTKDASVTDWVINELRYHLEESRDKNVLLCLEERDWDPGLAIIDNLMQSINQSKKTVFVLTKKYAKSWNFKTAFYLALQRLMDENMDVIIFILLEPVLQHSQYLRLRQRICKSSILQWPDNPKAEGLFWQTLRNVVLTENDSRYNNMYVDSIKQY
# Assay Overview: TLR8 human PBMC cell-based assay (antagonist, Compound A stimulated cytokine release)
# Condition Context: human PBMCs; TLR8 agonist Compound A 800 nM, 6 hours; cytokines (TNFa and IL 12p40) in supernatant; read-out: TLR-8 EC50
pEC50: −log10 of the molar value.
Readout Label: pEC50

[I] Cc1c(-c2[nH]c3cc(C(=O)N4CCNC(C)(C)C4)sc3c2C(C)C)cn2ncnc2c1C
[II] Cc1cc(-c2[nH]c3cc(C4CC4C(=O)N4CCNCC4)sc3c2C(C)C)cn2ncnc12 (stereo not drawn)
Task item: Which record would sort first by descending pEC50, I or II ? Selection: enter the item's label.
Reply: I

====

# Tested Target: TLR7 (Homo sapiens)
# Construct: Human peripheral blood mononuclear cells (PBMCs) consist of lymphocytes, monocytes and dendritic cells that express TLR7, TLR8 and TLR9; endogenous in cells
# Sequence (Q9NYK1 27-1049): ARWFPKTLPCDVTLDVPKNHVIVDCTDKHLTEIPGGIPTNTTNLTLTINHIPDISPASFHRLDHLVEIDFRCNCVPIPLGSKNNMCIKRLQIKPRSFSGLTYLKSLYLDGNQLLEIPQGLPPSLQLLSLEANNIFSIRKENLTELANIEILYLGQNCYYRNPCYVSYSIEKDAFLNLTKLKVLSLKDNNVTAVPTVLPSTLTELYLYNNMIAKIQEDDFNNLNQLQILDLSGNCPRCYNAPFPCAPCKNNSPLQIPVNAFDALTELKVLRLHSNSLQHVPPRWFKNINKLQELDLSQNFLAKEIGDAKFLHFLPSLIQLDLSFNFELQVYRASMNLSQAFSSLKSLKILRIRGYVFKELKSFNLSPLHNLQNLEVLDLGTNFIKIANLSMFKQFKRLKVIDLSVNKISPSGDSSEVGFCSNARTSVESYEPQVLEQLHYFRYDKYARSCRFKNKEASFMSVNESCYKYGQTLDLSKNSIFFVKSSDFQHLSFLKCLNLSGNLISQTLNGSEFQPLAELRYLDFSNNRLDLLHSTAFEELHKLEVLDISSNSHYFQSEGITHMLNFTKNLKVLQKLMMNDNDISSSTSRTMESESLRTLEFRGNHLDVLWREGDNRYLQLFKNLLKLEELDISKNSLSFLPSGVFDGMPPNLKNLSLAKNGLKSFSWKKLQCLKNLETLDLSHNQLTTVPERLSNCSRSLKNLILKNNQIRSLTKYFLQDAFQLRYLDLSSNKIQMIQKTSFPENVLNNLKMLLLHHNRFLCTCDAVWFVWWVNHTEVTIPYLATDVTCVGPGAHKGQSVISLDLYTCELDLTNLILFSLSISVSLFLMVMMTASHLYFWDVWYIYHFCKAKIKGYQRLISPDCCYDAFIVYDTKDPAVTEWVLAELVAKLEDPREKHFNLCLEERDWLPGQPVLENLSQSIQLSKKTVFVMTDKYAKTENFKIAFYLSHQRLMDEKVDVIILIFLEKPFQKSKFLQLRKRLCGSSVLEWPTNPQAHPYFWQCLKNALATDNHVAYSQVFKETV
# Assay Overview: TLR7 human PBMC cell-based assay (antagonist, GS-986 stimulated cytokine release)
# Condition Context: human PBMCs; TLR7 agonist GS-986 400 nM, 6 hours; cytokines (IL-6 and IFNα) in supernatant; read-out: TLR-7 EC50
pEC50: −log10 of the molar value.
Readout Label: pEC50

Cc1cc(-c2[nH]c3cc(C4CCC(C(=O)N5CCNCC5)CC4)sc3c2C(C)C)cn2ncnc12 (stereo not shown) :: 9.51

[A] Cc1cc(-c2[nH]c3cc(C4CCN(S(=O)(=O)C5CCNCC5)CC4)sc3c2C(C)C)cn2ncnc12
[B] Cc1cc(-c2[nH]c3cc(C4CCN(C(=O)C5(N)CCC5)CC4)sc3c2C(C)C)cn2ncnc12
[C] Cc1c(-c2[nH]c3cc(C(=O)N(C)C4CCN(C)CC4)sc3c2C(C)C)cn2ncnc2c1C
[D] Cc1cc(N2CCNCC2)ncc1-c1cc2[nH]c(-c3cc(C)c4ncnn4c3)c(C(C)C)c2s1
Task item: Order each entry by recorded pEC50, climbing from the minimum. Arrange the labels as the request states and list them.
Reply: B, C, D, A
(B: 7.48, C: 9.10, D: 9.40, A: 9.70)

[1] Cc1cc(-c2[nH]c3cc(-c4ccc5nc(C6N[C@@H]7CC[C@H]6C7)[nH]c5c4)sc3c2C(C)C)cn2ncnc12 (stereo partly shown)
[2] Cc1cc(-c2[nH]c3cc(C(=O)N(C)C4CCN(CCC(F)(F)F)CC4)sc3c2C(C)C)cn2ncnc12
Task item: Which record would sort first by descending pEC50, 1 or 2 ? Selection: enter the item's label.
Reply: 1

====

# Tested Target: TLR7 (Homo sapiens, UniProt Q9NYK1)
# Construct: Human peripheral blood mononuclear cells (PBMCs) consist of lymphocytes, monocytes and dendritic cells that express TLR7, TLR8 and TLR9; endogenous in cells
# Sequence (Q9NYK1 27-1049): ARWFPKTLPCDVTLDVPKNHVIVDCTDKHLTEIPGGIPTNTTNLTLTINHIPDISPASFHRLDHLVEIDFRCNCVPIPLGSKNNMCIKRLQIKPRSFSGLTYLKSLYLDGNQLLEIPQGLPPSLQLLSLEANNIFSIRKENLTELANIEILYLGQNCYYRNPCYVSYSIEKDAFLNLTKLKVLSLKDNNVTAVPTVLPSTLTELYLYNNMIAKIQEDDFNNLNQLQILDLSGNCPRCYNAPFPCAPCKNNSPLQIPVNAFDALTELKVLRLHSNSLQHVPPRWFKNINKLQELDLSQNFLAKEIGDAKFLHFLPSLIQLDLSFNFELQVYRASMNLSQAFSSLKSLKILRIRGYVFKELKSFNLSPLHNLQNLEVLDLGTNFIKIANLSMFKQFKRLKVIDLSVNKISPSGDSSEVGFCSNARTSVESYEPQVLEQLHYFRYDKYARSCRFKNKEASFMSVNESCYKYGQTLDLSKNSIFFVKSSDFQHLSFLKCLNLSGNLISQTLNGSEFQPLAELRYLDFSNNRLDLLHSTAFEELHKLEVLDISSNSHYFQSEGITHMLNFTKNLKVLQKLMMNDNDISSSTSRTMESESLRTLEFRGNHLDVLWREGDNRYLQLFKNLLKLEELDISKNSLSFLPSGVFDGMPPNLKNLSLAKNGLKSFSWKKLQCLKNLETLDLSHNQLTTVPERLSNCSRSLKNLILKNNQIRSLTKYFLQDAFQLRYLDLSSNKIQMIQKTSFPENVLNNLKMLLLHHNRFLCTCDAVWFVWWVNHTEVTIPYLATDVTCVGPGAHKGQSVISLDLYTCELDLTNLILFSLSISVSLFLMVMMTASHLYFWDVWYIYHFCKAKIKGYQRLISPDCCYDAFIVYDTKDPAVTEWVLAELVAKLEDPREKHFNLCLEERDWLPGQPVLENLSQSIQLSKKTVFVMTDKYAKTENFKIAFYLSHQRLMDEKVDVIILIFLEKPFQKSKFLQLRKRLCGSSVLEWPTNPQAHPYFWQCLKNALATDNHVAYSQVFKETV
# Assay Overview: TLR7 human PBMC cell-based assay (antagonist, GS-986 stimulated cytokine release)
# Condition Context: human PBMCs; TLR7 agonist GS-986 400 nM, 6 hours; cytokines (IL-6 and IFNα) in supernatant; read-out: TLR-7 EC50
pEC50: −log10 of the molar value.
Readout Label: pEC50

Worked cases, answers included:
Cc1cc(-c2[nH]c3cc(C(=O)N4CCC[C@@H](N)C4)sc3c2C(C)C)cc(C)n1 [Example 12] :: 7.37
Cc1cc(-c2[nH]c3cc(C4CCC5(CNC5)C4)sc3c2C(C)C)cn2ncnc12 (stereo not drawn) [Example 162] :: 9.22

[1] Cc1cc(-c2[nH]c3cc(C(=O)N4CCC[C@@H]5NCC[C@@H]54)sc3c2C(C)C)cn2ncnc12 [Example 93]
[2] Cc1c(-c2[nH]c3cc(C(=O)N4CCNCC4)sc3c2C(C)C)cn2ncnc2c1C [Example 32]
[3] Cc1cc(-c2[nH]c3cc(C4CC5CCC(C4)N5)sc3c2C(C)C)cn2ncnc12 (stereo not drawn) [Example 156]
[4] Cc1cc(-c2[nH]c3cc(C(=O)N4CCNCC4)sc3c2C(C)C)cn2ncnc12 [Example 38]
Task item: Order each entry by recorded pEC50, climbing from the minimum. Arrange the labels as the request states and list them.
Reply: 4, 2, 1, 3
(4: 8.46, 2: 8.68, 1: 9.22, 3: 10.00)
